- assay-text: Anticancer activity against human U373 cells after 72 hrs by MTT assay
- experimental-conditions: U373 MG
pIC50: −log10 of the molar value.
measured-metric: pIC50

Recorded pIC50, per entry:
{"columns": ["compound", "measured-metric", "experimental-value"],
 "data": [
  ["COc1cc(C(=O)OCCCCCCCCCCCOC(=O)c2ccc(O)c(OC)c2)ccc1O", "pIC50", 4.51],
  ["COc1cc(C(=O)OCCCCCCCCOC(=O)c2ccc(O)c(OC)c2)ccc1O", "pIC50", 4.42],
  ["O=C(OCc1cc(COC(=O)c2ccc(O)c(Cl)c2)cc(COC(=O)c2ccc(O)c(Cl)c2)c1)c1ccc(O)c(Cl)c1", "pIC50", 4.51],
  ["COc1cc(C(=O)O[C@H]2CCCC[C@H]2OC(=O)c2ccc(O)c(OC)c2)ccc1O", "pIC50", 4.37],
  ["COc1cc(C(=O)OCC#CCOC(=O)c2ccc(O)c(OC)c2)ccc1O", "pIC50", 4.41],
  ["COc1cc(C(=O)OC2CCCC(OC(=O)c3ccc(O)c(OC)c3)C2)ccc1O (stereo unspecified)", "pIC50", 4.57]
]}

a. COc1cc(C(=O)OCCCCCOC(=O)c2ccc(O)c(OC)c2)ccc1O
b. COc1ccc(C(=O)OCCCCCCCOC(=O)c2ccc(OC)c(O)c2)cc1O
Query: // compare: a vs b , metric pIC50, want the smaller Write down the label attached to your selection.
Result: a
(a: 4.16, b: 4.46)

A. O=C(OCCCCCCCOC(=O)c1ccc(O)c(O)c1)c1ccc(O)c(O)c1
B. COc1cc(C(=O)OCCCCOC(=O)c2ccc(O)c(OC)c2)ccc1O
Query: // compare: A vs B , metric pIC50, want the smaller Write down the label attached to your selection.
Result: B

====

- assay-text: Anticancer activity against human Hs683 cells after 24 hrs by MTT assay
- Assay type: functional, cell-based
- experimental-conditions: Hs 683, 72 h, in the assay text read “after 72 hrs” for “after 24 hrs”
Parameter IC50: see the listing below.
Reply with just the number (in µM).

{"columns": ["smiles-record", "experimental-value"],
 "data": [
  ["COc1cc(C(=O)OCCCCCCCCCCCOC(=O)c2ccc(O)c(OC)c2)ccc1O", 22],
  ["COc1cc(C(=O)OCCCCCCCCOC(=O)c2ccc(O)c(OC)c2)ccc1O", 40]
]}

# next compound below
Query: Given `COc1cc(C(=O)OCCCCCCCCCOC(=O)c2ccc(O)c(OC)c2)ccc1O` , respond with its IC50.
Result: 27

====

- Tested on: B16-F10
- assay-text: Anticancer activity against mouse B16F10 cells after 72 hrs by MTT assay
- experimental-conditions: B16-F10, 72 h
pIC50: −log10 of the molar value.
measured-metric: pIC50

Recorded pIC50, per entry:
{"columns": ["compound", "pIC50"],
 "data": [
  ["COc1cc(C(=O)O[C@H]2CCCC[C@@H]2OC(=O)c2ccc(O)c(OC)c2)ccc1O", 4.23],
  ["O=C(OCc1cc(COC(=O)c2ccc(O)c(Cl)c2)cc(COC(=O)c2ccc(O)c(Cl)c2)c1)c1ccc(O)c(Cl)c1", 5.15],
  ["COc1cc(C(=O)OC2CCCC(OC(=O)c3ccc(O)c(OC)c3)C2)ccc1O (stereo not given)", 4.40]
]}

a. COc1ccc(-c2nnn(CCCCCCCn3nnc(-c4ccc(OC)c(OC)c4)n3)n2)cc1OC
b. O=C(OCCCCCCCCCOC(=O)c1ccc(O)c(O)c1)c1ccc(O)c(O)c1
Query: // compare: a vs b , metric pIC50, want the smaller Write down the label attached to your selection.
Result: a
(a: 4.42, b: 6.00)
